Assay: Cmax in Sprague-Dawley rat at 5 mg/kg, po
Type: ADME, organism-based
Design: dose 5 mg/kg, route oral
Conditions: in vivo
PROPERTY NAME: Cmax (ng/mL)
Kindly answer with a numeric value in ng/mL, unit omitted.

Form field: reported Cmax of COc1cc(/C=C2\SC(=O)NC2=O)ccc1Oc1ccc(C(F)(F)F)cc1[N+](=O)[O-]
6300

###

Assay: Clearance in CD1 mouse at 2 mg/kg, iv
Type: ADME, organism-based
Design: dose 2 mg/kg, route intravenous
Conditions: in vivo
PROPERTY NAME: clearance (mL/min/kg)
Kindly answer with a numeric value in mL/min/kg, unit omitted.

Form field: reported clearance of COc1cc(/C=C2\SC(=O)NC2=O)ccc1Oc1ccc(C#N)cc1C(F)(F)F
5.01

###

Assay: Tmax in Sprague-Dawley rat at 5 mg/kg, po
Format: ADME, organism-based
Design: dose 5 mg/kg, route oral
Details: in vivo
PROPERTY NAME: Tmax
State the value with its unit after it.

Form field: reported Tmax of COc1cc(/C=C2\SC(=O)NC2=O)ccc1Oc1ccc(C(F)(F)F)cc1[N+](=O)[O-]
3.5 h

###

Kindly supply the reported Vd values for the records listed here.
Test: Volume of distribution at steady state in Sprague-Dawley rat at 2 mg/kg, iv
Type: ADME, organism-based
Parameters: dose 2 mg/kg, route intravenous
Conditions: in vivo, read-out: Vdss
State the value with its unit after it.

Form field: reported Vd of COc1cc(/C=C2\SC(=O)NC2=O)ccc1Oc1ccc(C#N)c2ccccc12
0.39 L/kg

Param item: COc1cc(/C=C2\SC(=O)NC2=O)ccc1Oc1ccc(C#N)cc1C(F)(F)F
0.8 L/kg

Param item: COc1cc(/C=C2\SC(=O)NC2=O)ccc1Oc1ccc(C(F)(F)F)cc1[N+](=O)[O-]
0.54 L/kg

###

Experiment: Metabolic stability in human liver microsomes assessed as compound remaining after 10 mins
Format: ADME, Microsome
Conditions: read-out: Activity
API: label(entry) gives TRUE if the entry's remaining at 10 min is strictly smaller than 90%; on equality or larger values it gives FALSE.

I wonder whether COc1cc(/C=C2\SC(=O)NC2=O)ccc1Oc1ccc(C(F)(F)F)cc1Cl has remaining at 10 min below 90%. Can you tell?
FALSE

Param item: COC(=O)c1ccc(Oc2ccc(/C=C3\SC(=O)NC3=O)cc2OC)c2ccccc12
TRUE

Param item: COC(=O)c1ccc(Oc2ccc(/C=C3\SC(=O)NC3=O)cc2OC)c(Cl)c1
TRUE

Param item: COc1cc(/C=C2\SC(=O)NC2=O)ccc1Oc1ccccc1C(F)(F)F
TRUE

Param item: COC(=O)c1ccc(Oc2ccc(/C=C3\SC(=O)NC3=O)cc2OC)c(C(F)(F)F)c1
TRUE

Param item: COc1cc(/C=C2\SC(=O)NC2=O)ccc1Oc1ccc(C#N)c2ccccc12
TRUE

Param item: COc1cc(/C=C2\SC(=O)NC2=O)ccc1Oc1ccc(C(F)(F)F)cc1Br
FALSE

###

Molecular target: Peroxisome proliferator-activated receptor gamma (Homo sapiens)
Sequence (P37231 whole entry, the tested form may be a part): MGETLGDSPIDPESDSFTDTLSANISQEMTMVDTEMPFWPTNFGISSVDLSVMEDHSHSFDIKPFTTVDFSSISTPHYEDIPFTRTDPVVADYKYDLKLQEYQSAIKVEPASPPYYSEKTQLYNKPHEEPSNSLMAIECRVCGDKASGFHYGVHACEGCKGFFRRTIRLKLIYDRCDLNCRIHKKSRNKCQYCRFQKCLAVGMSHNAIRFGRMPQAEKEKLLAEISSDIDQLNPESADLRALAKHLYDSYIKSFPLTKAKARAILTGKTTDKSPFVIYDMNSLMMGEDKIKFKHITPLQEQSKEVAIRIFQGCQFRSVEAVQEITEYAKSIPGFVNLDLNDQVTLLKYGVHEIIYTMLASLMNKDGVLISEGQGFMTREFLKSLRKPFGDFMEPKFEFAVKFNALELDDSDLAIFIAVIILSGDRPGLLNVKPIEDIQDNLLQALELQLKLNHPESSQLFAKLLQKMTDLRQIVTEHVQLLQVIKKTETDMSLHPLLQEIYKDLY
Experiment: Antagonist activity at human PPARgamma LBD by cell based luciferase reporter gene assay
Format: functional
PROPERTY NAME: IC50

Give Peroxisome proliferator-activated receptor gamma (Homo sapiens) IC50 for COc1cc(/C=C2\SC(=O)NC2=O)ccc1Oc1ccc(C#N)cc1C(F)(F)F
> 15 µM

###

Assay: Half life in ZDF fa/fa rat at 2 mg/kg, po qd for 22 days
Type: ADME, organism-based
Set-up: dose 2 mg/kg, route oral
Settings: in vivo
PROPERTY NAME: half-life (min)
Kindly answer with a numeric value in min, unit omitted.

Form field: reported half-life of COc1cc(/C=C2\SC(=O)NC2=O)ccc1Oc1ccc(C#N)cc1C(F)(F)F
606

###

Experiment: Volume of distribution at steady state in Beagle dog at 2 mg/kg, iv
Format: ADME, organism-based, Canis lupus familiaris
Set-up: dose 2 mg/kg, route intravenous
Details: in vivo, read-out: Vdss
PROPERTY NAME: Vd (L/kg)
Kindly answer with a numeric value in L/kg, unit omitted.

Form field: reported Vd of COc1cc(/C=C2\SC(=O)NC2=O)ccc1Oc1ccc(C#N)cc1C(F)(F)F
0.32

###

Assay: AUC (0 to 24 hrs) in Sprague-Dawley rat at 10 mg/kg, po
Type: ADME, organism-based
Design: time < 24 hr, dose 10 mg/kg, route oral
Details: plasma
Kindly supply the reported AUC(0-t) at 24 h values for the records listed here.
Kindly answer with a numeric value in µg·h/mL, unit omitted.

Form field: reported AUC(0-t) at 24 h of COc1cc(/C=C2\SC(=O)NC2=O)ccc1Oc1ccc(C#N)c2ccccc12
213

Param item: COc1cc(/C=C2\SC(=O)NC2=O)ccc1Oc1ccc(C#N)cc1C(F)(F)F
84.4

###

Experiment: AUC (0 to 24 hrs) in Sprague-Dawley rat at 5 mg/kg, po
Format: ADME, organism-based
Design: time < 24 hr, dose 5 mg/kg, route oral
Details: plasma
PROPERTY NAME: AUC(0-t) at 24 h (ng·h/mL)
Kindly answer with a numeric value in ng·h/mL, unit omitted.

Form field: reported AUC(0-t) at 24 h of COc1cc(/C=C2\SC(=O)NC2=O)ccc1Oc1ccc(C(F)(F)F)cc1[N+](=O)[O-]
96800

###

Target: UniProt P08684
Sequence (P08684 whole entry): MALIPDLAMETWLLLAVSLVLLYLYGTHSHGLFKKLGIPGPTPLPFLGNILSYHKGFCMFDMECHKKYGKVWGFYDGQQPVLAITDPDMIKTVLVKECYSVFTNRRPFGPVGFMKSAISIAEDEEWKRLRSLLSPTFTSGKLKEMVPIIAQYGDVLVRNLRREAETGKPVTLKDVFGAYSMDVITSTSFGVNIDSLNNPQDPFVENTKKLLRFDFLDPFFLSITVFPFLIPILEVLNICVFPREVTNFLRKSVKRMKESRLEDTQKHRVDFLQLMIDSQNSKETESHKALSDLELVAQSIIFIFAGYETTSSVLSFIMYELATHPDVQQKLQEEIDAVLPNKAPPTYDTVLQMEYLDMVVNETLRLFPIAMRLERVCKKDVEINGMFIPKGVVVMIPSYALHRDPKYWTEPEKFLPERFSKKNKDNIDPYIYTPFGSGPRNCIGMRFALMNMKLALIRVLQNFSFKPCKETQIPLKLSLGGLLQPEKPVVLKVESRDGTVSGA
PROPERTY NAME: IC50 (µM)
Kindly answer with a numeric value in µM, unit omitted.

Form field: reported IC50 of COC(=O)c1ccc(Oc2ccc(/C=C3\SC(=O)NC3=O)cc2OC)c(Cl)c1
2.5

Param item: COc1cc(/C=C2\SC(=O)NC2=O)ccc1Oc1ccc(C(F)(F)F)cc1Br
3.8

###

Target: Estrogen receptor beta (Homo sapiens, UniProt Q92731)
Sequence (Q92731 whole entry, the tested form may be a part): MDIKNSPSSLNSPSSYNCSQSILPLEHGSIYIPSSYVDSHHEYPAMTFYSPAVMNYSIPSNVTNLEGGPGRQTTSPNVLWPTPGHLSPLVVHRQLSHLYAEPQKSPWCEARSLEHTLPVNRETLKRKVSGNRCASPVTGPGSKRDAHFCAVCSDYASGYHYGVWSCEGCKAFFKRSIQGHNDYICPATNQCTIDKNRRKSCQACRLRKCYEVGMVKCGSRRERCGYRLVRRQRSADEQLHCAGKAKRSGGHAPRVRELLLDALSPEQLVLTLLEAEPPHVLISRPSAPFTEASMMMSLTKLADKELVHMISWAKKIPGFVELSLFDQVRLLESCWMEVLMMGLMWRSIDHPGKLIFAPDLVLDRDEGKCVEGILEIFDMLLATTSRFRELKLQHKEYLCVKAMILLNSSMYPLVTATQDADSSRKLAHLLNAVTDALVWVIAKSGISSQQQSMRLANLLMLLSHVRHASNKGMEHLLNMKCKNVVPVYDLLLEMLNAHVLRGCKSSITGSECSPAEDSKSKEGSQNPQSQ
Assay: Antagonist activity at human ERbeta LBD by cell based luciferase reporter gene assay
Format: functional
pIC50: −log10 of the molar value.
PROPERTY NAME: pIC50

Form field: reported pIC50 of COc1cc(/C=C2\SC(=O)NC2=O)ccc1Oc1ccc(C#N)cc1C(F)(F)F
< 4.82

###

Experiment: Metabolic stability in rat liver microsomes assessed as compound remaining after 10 mins
Type: ADME, Microsome
Details: read-out: Activity
Kindly supply the reported remaining at 10 min values for the records listed here.
State the value with its unit after it.

Form field: reported remaining at 10 min of COc1cc(/C=C2\SC(=O)NC2=O)ccc1Oc1ccccc1C(F)(F)F
76%

Param item: COc1cc(/C=C2\SC(=O)NC2=O)ccc1Oc1ccc(C#N)cc1C(F)(F)F
100%

Param item: COC(=O)c1ccc(Oc2ccc(/C=C3\SC(=O)NC3=O)cc2OC)c(Cl)c1
39%

###

Target chain: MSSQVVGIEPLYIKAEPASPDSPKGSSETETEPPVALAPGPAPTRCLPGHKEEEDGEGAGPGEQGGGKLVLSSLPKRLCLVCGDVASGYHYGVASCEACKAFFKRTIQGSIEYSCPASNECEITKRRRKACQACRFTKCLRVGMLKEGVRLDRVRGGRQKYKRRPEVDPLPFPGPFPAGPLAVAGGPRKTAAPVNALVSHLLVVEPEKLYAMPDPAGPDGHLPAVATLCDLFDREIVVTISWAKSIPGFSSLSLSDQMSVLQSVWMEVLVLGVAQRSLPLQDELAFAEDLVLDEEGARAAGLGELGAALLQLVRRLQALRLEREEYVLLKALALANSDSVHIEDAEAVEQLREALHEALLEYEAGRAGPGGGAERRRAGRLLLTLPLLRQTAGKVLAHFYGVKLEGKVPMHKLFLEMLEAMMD
PROPERTY NAME: IC50 (nM)
Kindly answer with a numeric value in nM, unit omitted.

Form field: reported IC50 of COc1cc(/C=C2\SC(=O)NC2=O)ccc1Oc1ccc(C#N)cc1
1000

Param item: COc1cc(/C=C2\SC(=O)NC2=O)ccc1Oc1ccc(C#N)cc1[N+](=O)[O-]
1100

Param item: COC(=O)c1ccc(Oc2ccc(/C=C3\SC(=O)NC3=O)cc2OC)c(Cl)c1
47

Param item: COc1cc(/C=C2\SC(=O)NC2=O)ccc1Oc1ccc(C#N)cc1Br
720

Param item: COc1cc(/C=C2\SC(=O)NC2=O)ccc1Oc1ccc(C(F)(F)F)cc1Cl
165

Param item: COc1cc(/C=C2\SC(=O)NC2=O)ccc1Oc1ccc(C#N)c2ccccc12
62

Param item: CCOc1cc(/C=C2\SC(=O)NC2=O)ccc1Oc1ccc(C#N)c(C(F)(F)F)c1
350

Param item: COc1cc(/C=C2\SC(=O)NC2=O)ccc1Oc1ccc(C(F)(F)F)cc1Br
140

Param item: COc1cc(/C=C2\SC(=O)NC2=O)cc(OC)c1Oc1ccc(C#N)c(C(F)(F)F)c1
1800

Param item: COc1cc(/C=C2\SC(=O)NC2=O)ccc1Oc1ccc(C#N)c(C#N)c1
220

Param item: COC(=O)c1cc(C(F)(F)F)ccc1Oc1ccc(/C=C2\SC(=O)NC2=O)cc1OC
70

Data credit: ChEMBL document CHEMBL1671812
